# experimentalTarget: Human Cav2.2 channels (Homo sapiens)
# Construct: expressed in transfected cells
# measurementProtocol: Fluorescent assay for Cav2.2 channels using potassium depolarization to initiate channel opening
# Format: cell-based
# experimentalSetup: 30 μM compound; read-out: Cav 2.2 Activity % Inh at 30 μM
metricName: inhibition at 30 µM (%)

Illustrative cases are given below, each with its answer.
{"compound": "CC(C)(C#N)c1cccc(C(=O)NC2(C(=O)NCc3cccc(C(F)(F)F)c3)CCCCC2)c1 [Compound 124]", "quantityUnit": "%", "inhibition at 30 µM": 74}
{"compound": "COc1c(C(C)(C)C)cc(C(=O)NC2(C(=O)Nc3ccccc3)CCCCC2)cc1C(C)(C)C [Compound 96]", "quantityUnit": "%", "inhibition at 30 µM": 82.6}
{"compound": "COc1ccc(C(=O)NC2(C(=O)NCc3cccc(C(F)(F)F)c3)CCCCC2)cc1C(C)(C)C#N [Compound 118]", "quantityUnit": "%", "inhibition at 30 µM": 77.6}

A = CC(C)(C)c1cc(CNC2(C(=O)NCc3cccc(C(F)(F)F)c3)CCCCC2)cc(C(C)(C)C)c1 [Compound 60]
B = COc1ccc(CNC(=O)C2(NC(=O)Cc3cc(C(C)(C)C)c(OC)c(C(C)(C)C)c3)CCCCC2)cc1 [Compound 18]
C = N#CCc1cc(CC#N)cc(C(=O)NC2(C(=O)NCc3cccc(C(F)(F)F)c3)CCCCC2)c1 [Compound 61]
stdin: Sort low-to-high on inhibition at 30 µM, please. State the ranking by listing the labels in the requested order.
stdout: B, C, A
(B: 34.5%, C: 56.4%, A: 85.8%)

###

# experimentalTarget: Human Cav2.2 channels (Homo sapiens)
# Construct: expressed in transfected cells
# measurementProtocol: Fluorescent assay for Cav2.2 channels using potassium depolarization to initiate channel opening
# Format: cell-based
# experimentalSetup: 10 μM compound; read-out: Cav 2.2 Activity % Inh at 10 μM
metricName: inhibition at 10 µM (%)

Illustrative cases are given below, each with its answer.
{"structureString": "CNC(=O)C1(NC(=O)c2cc(C(C)(C)C)cc(C(C)(C)C)c2)CCCCC1", "metricName": "inhibition at 10 µM", "valueMeasured": 92.5}
{"structureString": "CC(C)(C)OC(=O)N1CCC(NC(=O)c2cc(C(C)(C)C)nc(C(C)(C)C)c2)(C(=O)NCc2ccccc2)CC1", "metricName": "inhibition at 10 µM", "valueMeasured": 50.2}
{"structureString": "CN(C)Cc1ccc(CNC(=O)C2(NC(=O)c3cc(C(C)(C)C)nc(C(C)(C)C)c3)CCOCC2)cc1", "metricName": "inhibition at 10 µM", "valueMeasured": 87.4}

A = COc1c(C(C)(C)C)cc(CNC(=O)C2(NC(=O)c3cccc(C(F)(F)F)c3)CCCCC2)cc1C(C)(C)C
B = COc1ccc(CNC(=O)C2(NC(=O)c3cc(C(C)(C)C#N)cc(C(C)(C)C#N)c3)CCOCC2)cc1
stdin: Larger number for inhibition at 10 µM: A , or B ? # reply format: chosen label
stdout: A

###

# experimentalTarget: Human Cav2.2 channels (Homo sapiens, UniProt Q00975)
# Construct: expressed in transfected cells
# Sequence (Q00975 whole entry): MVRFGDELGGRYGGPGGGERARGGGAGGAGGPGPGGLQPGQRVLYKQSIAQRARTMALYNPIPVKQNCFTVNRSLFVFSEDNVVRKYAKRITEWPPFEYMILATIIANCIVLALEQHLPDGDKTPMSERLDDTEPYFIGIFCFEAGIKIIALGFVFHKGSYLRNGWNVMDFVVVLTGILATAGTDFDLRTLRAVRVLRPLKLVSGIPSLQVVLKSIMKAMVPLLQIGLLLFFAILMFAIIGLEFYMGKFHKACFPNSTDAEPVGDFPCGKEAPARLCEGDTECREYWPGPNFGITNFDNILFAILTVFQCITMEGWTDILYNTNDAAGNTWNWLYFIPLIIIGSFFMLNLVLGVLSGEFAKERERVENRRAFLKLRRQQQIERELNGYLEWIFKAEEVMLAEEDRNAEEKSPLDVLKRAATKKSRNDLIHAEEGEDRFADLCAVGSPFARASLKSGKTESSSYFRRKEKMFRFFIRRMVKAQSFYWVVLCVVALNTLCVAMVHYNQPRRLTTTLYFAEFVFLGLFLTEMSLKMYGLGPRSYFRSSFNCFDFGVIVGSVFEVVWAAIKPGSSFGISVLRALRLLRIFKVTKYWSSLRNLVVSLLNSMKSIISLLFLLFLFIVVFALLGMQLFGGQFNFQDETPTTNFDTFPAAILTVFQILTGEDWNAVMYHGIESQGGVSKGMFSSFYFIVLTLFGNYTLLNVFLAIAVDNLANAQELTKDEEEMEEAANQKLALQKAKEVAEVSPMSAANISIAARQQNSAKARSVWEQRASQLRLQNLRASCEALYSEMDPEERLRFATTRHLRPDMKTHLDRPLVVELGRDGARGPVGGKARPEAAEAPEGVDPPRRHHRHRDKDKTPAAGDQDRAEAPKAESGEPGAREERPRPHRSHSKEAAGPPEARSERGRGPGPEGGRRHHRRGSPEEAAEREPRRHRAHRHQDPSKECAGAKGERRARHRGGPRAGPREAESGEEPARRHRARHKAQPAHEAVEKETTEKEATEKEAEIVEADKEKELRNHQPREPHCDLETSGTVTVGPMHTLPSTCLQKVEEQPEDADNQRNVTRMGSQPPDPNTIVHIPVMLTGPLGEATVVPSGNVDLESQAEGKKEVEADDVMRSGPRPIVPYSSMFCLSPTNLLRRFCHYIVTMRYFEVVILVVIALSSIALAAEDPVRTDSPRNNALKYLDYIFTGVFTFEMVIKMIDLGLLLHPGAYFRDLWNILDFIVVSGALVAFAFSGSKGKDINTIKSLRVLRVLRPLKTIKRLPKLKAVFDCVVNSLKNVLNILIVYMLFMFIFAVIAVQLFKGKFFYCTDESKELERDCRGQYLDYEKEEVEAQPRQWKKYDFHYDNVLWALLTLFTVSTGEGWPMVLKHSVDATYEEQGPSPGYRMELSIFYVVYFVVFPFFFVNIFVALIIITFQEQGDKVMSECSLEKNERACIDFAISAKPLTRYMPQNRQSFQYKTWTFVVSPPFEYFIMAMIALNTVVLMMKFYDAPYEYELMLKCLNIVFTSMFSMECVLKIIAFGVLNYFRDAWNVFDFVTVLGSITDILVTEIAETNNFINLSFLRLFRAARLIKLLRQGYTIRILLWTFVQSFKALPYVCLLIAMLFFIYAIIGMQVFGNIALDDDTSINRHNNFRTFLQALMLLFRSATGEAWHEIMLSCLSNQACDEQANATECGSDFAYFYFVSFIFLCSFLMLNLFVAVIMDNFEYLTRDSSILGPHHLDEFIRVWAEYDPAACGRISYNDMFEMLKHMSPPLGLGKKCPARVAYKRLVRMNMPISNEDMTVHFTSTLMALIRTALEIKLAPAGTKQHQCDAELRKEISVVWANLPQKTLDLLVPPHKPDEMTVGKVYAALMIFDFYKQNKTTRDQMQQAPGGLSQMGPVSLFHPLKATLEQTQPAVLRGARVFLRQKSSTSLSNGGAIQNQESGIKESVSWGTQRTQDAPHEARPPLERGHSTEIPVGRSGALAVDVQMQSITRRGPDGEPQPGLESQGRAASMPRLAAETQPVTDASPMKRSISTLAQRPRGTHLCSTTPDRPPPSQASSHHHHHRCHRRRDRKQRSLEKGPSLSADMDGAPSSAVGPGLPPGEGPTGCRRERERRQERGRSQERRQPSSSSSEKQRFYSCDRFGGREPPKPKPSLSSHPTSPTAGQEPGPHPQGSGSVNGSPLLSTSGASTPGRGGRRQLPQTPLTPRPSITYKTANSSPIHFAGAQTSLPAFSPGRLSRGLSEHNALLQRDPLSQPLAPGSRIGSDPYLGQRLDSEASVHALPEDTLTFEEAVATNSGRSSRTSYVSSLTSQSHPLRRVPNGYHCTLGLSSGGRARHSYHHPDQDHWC
# Sequence (P54289 25-1103 partner): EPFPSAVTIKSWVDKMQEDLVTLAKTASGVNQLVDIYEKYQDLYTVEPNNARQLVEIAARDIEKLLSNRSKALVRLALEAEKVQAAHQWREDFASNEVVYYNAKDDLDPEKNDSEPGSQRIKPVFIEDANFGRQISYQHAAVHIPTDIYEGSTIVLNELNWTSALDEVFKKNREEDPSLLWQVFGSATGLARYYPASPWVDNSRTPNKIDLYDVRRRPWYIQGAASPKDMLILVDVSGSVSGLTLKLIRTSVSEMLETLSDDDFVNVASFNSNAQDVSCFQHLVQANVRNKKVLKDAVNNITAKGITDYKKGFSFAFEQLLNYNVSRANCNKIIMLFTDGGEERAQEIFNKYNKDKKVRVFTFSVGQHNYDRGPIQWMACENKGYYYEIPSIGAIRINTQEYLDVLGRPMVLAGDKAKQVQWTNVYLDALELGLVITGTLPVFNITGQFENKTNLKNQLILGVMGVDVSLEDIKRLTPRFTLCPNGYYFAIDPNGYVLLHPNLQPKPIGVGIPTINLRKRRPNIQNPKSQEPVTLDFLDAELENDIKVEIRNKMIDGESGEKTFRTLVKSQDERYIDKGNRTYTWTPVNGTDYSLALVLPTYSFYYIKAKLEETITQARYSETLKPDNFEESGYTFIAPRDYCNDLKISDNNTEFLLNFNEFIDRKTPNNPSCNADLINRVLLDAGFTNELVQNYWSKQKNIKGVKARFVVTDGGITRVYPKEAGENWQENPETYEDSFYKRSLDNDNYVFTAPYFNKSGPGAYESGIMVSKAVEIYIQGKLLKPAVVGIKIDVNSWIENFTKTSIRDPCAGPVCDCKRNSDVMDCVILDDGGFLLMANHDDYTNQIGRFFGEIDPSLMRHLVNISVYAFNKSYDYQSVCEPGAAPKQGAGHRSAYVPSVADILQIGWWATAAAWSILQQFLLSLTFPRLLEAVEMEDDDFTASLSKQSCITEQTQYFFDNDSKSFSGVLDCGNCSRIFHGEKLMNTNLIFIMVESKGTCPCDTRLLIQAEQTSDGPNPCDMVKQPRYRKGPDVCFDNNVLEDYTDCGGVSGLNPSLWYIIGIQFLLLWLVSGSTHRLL
# Sequence (P54284 whole entry partner): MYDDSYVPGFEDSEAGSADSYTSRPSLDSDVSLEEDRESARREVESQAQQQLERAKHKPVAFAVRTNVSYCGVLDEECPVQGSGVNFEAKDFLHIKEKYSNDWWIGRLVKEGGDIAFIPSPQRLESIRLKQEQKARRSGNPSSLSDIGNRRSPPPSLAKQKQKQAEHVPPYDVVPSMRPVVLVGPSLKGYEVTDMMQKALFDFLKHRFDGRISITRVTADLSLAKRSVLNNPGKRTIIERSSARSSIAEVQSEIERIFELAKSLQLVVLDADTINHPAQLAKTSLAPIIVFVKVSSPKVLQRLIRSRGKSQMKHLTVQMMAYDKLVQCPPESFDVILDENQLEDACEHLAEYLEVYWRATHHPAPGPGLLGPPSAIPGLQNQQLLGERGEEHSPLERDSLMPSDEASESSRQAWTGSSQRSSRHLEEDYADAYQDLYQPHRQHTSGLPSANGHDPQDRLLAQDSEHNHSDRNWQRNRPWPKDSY
# measurementProtocol: Fluorescent assay for Cav2.2 channels using potassium depolarization to initiate channel opening
# Assay type: cell-based
# experimentalSetup: 10 μM compound; read-out: Cav 2.2 Activity % Inh at 10 μM
metricName: inhibition at 10 µM (%)

Illustrative cases are given below, each with its answer.
{"structureString": "Cc1cnc(CNC(=O)C2(NC(=O)c3cc(C(C)(C)C)nc(C(C)(C)C)c3)CCCCC2)cn1", "quantityUnit": "%", "valueMeasured": 87.8}
{"structureString": "COc1ccc(CNC(=O)C2(NC(=O)c3cc(C(C)(C)C)c(O)c(C(C)(C)C)c3)CC2)cc1", "quantityUnit": "%", "valueMeasured": 29.8}
{"structureString": "CC(C)(C)c1cc(C(=O)NC2(C(=O)NCc3ccccc3)Cc3ccccc3C2)cc(C(C)(C)C)n1", "quantityUnit": "%", "valueMeasured": 82.2}
{"structureString": "Cc1cc(CNC(=O)C2(NC(=O)c3cc(C(C)(C)C)c(O)c(C(C)(C)C)c3)CC2)no1", "quantityUnit": "%", "valueMeasured": 92.5}
{"structureString": "CC(C)(C)c1cc(C(=O)NC2(C(=O)NCc3nccs3)CC2)cc(C(C)(C)C)c1O", "quantityUnit": "%", "valueMeasured": 95.2}

1 = COc1c(C(C)(C)C)cc(C(=O)NC2(C(=O)NCc3cnc(C)cn3)CCN(C(=O)OC(C)(C)C)CC2)cc1C(C)(C)C
2 = CC(C)(C)c1cc(C(=O)NC2(C(=O)NCc3cccc(C(F)(F)F)c3)Cc3ccccc3C2)cc(C(C)(C)C)n1
stdin: Param metric = inhibition at 10 µM; output whichever of 1 , 2 has the minimum value. # reply format: chosen label
stdout: 2

###

# experimentalTarget: Human Cav2.2 channels (Homo sapiens)
# Construct: expressed in transfected cells
# measurementProtocol: Fluorescent assay for Cav2.2 channels using potassium depolarization to initiate channel opening
# Assay type: cell-based
# experimentalSetup: 30 mM K (block of open and inactivated channels); read-out: Cav 2.2 Activity IC50 at 30 mM K
metricName: IC50 (µM)

{"structureString": "CC(C)(C)c1cc(C(=O)NC2(C(=O)NCc3ccccn3)CC2)cc(C(C)(C)C)n1", "IC50 / µM": 0.143}

I = COc1ccc(CNC(=O)C2(NC(=O)c3cc(C(C)(C)C)cc(C(C)(C)C)c3)CCCC2)cc1
II = CC(C)(C)c1cc(C(=O)NC2(C(=O)NCc3ccccc3)CCCCC2)cc(C(C)(C)C)n1
stdin: Larger number for IC50: I , or II ? # reply format: chosen label
stdout: II
(II: 0.321 µM, I: 0.153 µM)

###

# experimentalTarget: Human Cav2.2 channels (Homo sapiens, UniProt Q00975)
# measurementProtocol: Fluorescent assay for Cav2.2 channels using potassium depolarization to initiate channel opening
# experimentalSetup: 30 mM K (block of open and inactivated channels); read-out: Cav 2.2 Activity IC50 at 30 mM K
# Method: Human Cav2.2 channels were stably expressed in HEK293 cells along with alpha2-delta and beta subunits of voltage-gated calcium channels. […] Calcium influx through Cav2.2 channels is determined using a calcium sensitive fluorescent dye in combination with a fluorescent plate reader. Fluorescent changes were measured with either a VIPR (Aurora Instruments) or FLIPR (Molecular Devices) plate reader. • 1. […] Read cell plate on VIPR instrument, Excitation=480 nm, Emission=535 nm • 9. […]
metricName: IC50 (nM)

{"compound": "CC(C)(C)c1cc(C(=O)NC2(C(=O)NCc3ccccc3)CCCCC2)cc(C(C)(C)C)c1 [Compound 44]", "IC50 [nM]": 60.4}
{"compound": "Cc1cc(CNC(=O)C2(NC(=O)c3cc(C(C)(C)C)c(O)c(C(C)(C)C)c3)CCCCC2)no1 [Compound 12]", "IC50 [nM]": 55}

1 = CC(C)(C)c1cc(C(=O)NC2(C(=O)NCc3nccs3)CC2)cc(C(C)(C)C)n1 [Compound 10]
2 = CC(C)(C)c1cc(C(=O)NC2(C(=O)NCc3cccc(C(F)(F)F)c3)CCCC2)cc(C(C)(C)C)c1 [Compound 39]
3 = Cc1cc(CNC(=O)C2(NC(=O)c3cc(C(C)(C)C)cc(C(C)(C)C)c3)CCCCC2)nn1C [Compound 68]
4 = CN(C)c1ccc(CNC(=O)C2(NC(=O)c3cc(C(C)(C)C)c(O)c(C(C)(C)C)c3)CCCCC2)cc1 [Compound 7]
stdin: Falling order of IC50, please. State the ranking by listing the labels in the requested order.
stdout: 2, 1, 4, 3
(2: 513 nM, 1: 184 nM, 4: 128 nM, 3: 64.9 nM)

###

# experimentalTarget: Human Cav2.2 channels (Homo sapiens, UniProt Q00975)
# Construct: expressed in transfected cells
# measurementProtocol: Fluorescent assay for Cav2.2 channels using potassium depolarization to initiate channel opening
# Assay type: cell-based
# experimentalSetup: 30 μM compound; read-out: Cav 2.2 Activity % Inh at 30 μM
metricName: inhibition at 30 µM (%)

{"compound": "COc1ccc(C(=O)NC2(C(=O)NCc3cc(C(C)(C)C)c(OC)c(C(C)(C)C)c3)CCCCC2)cc1 [Compound 74]", "inhibition at 30 µM [%]": 106}
{"compound": "COc1ccc(CNC(=O)C2(NC(=O)c3cc(C(C)(C)C)nc(C(C)(C)C)c3)CCCC2)cc1 [Compound 89]", "inhibition at 30 µM [%]": 100}
{"compound": "COc1c(C(C)(C)C)cc(C(=O)NC2(C(=O)NCc3cc(C)on3)CCCCC2)cc1C(C)(C)C [Compound 86]", "inhibition at 30 µM [%]": 104}
{"compound": "CNC(=O)C1(NC(=O)c2cc(C(C)(C)C)c(OC)c(C(C)(C)C)c2)CCCCC1 [Compound 28]", "inhibition at 30 µM [%]": 89.4}
{"compound": "CC(C)(C)c1cc(C(=O)NC2(C(=O)O)CCCCC2)cc(C(C)(C)C)c1 [Compound 34]", "inhibition at 30 µM [%]": 82.3}
